observed_property: melting point

In [3]: df
Out[3]:
                                    compound  observed_property  observed_measurement
 0  NC1=NC(c2ccc(O)cc2)(c2cccc(-c3cccnc3F)c2)C2=NCCCN12 (stereo unspecified)      melting point         164 to 181 °C
 1                   CSc1ccc2c(c1)C(=O)OC2=O      melting point         157 to 160 °C
 2                      Cc1cc(-n2cnnc2)ccc1N      melting point         152 to 154 °C
 3            CCOC(=O)c1sc(N)nc1-c1cccc(C)c1      melting point         183 to 184 °C
 4  COc1ccc(-c2coc(C(=O)NNC(=O)c3ccc(O)c(C#N)c3)c2-c2ccccc2)cc1      melting point         146 to 148 °C
 5  COc1ccc(N2CCN(c3ccc(OC)nc3-c3ccc(C(C)(C)O)cc3)CC2)cc1      melting point         138 to 144 °C
 6                        CNc1ccc2[nH]ncc2c1      melting point         144 to 146 °C
 7  CCCCCCC1CC(Cn2cncn2)(c2ccccc2)N(C)O1 (stereo unspecified)      melting point           93 to 99 °C
 8  O=C(NC(SC(=O)c1ccccc1)C(=O)N1CCCC1C(=O)O)c1ccccc1 (stereo unspecified)      melting point         202 to 205 °C
 9  CCOC(=O)Nc1ccc(C(c2ccccc2)n2ccnc2)cc1COC1CCCCO1 (stereo unspecified)      melting point                132 °C
10         CC#CCn1c(=N)sc2cc(OC(F)(F)F)ccc21      melting point                116 °C

# credit: a melting point compilation (Tetko et al.; mined from patent text by program, amines drawn as free bases though some values may be those of a salt)
